- TARGET DESC: Nitric oxide synthase 3 (Homo sapiens)
- Sequence (P29474 whole entry): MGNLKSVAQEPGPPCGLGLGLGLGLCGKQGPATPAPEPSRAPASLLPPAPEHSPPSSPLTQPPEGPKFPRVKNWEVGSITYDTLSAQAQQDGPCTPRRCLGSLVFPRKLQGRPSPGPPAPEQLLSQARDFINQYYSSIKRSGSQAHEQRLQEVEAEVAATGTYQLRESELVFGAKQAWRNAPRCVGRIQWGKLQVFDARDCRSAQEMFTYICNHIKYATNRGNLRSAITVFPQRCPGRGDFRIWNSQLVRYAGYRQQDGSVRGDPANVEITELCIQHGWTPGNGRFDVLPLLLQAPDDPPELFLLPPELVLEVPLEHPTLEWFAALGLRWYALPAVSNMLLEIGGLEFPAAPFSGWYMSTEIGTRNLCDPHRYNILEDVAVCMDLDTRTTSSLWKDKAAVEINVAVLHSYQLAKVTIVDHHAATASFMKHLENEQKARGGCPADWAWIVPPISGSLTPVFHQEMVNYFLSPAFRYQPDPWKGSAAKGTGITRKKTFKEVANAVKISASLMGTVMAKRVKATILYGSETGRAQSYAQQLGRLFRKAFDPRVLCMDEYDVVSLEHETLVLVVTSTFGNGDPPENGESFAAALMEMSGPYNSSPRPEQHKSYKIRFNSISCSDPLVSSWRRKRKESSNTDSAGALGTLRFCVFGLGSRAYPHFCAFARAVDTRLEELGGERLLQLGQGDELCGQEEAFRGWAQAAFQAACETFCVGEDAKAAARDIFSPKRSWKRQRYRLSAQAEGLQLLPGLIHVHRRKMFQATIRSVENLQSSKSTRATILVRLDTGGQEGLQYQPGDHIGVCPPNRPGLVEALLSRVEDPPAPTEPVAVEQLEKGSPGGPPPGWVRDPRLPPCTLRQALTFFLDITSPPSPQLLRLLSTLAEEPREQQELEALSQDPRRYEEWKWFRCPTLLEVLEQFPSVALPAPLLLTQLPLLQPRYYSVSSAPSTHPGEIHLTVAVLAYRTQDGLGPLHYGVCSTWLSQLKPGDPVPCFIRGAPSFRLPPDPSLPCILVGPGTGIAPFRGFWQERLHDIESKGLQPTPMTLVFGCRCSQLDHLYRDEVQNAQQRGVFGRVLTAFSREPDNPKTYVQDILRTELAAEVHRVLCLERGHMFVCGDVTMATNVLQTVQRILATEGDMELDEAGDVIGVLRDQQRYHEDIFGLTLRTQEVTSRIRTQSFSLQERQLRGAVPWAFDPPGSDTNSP
- PROTOCOL DESCRIPTION: Ability to inhibit the conversion of [3H]L-Arg to [3H]L-citrulline catalyzed by e-NOS from HUVEC cells
pIC50: −log10 of the molar value.
REPORTED METRIC: pIC50

> print(dat)
                                    molecule                             target.desc  reported.metric  measured.value
 1  NC1=NC(C2CC2)Cc2sccc21 (stereo unspecified)  Nitric oxide synthase 3 (Homo sapiens)            pIC50            6.12
 2  C#CC1Cc2ccsc2C(N)=N1 (stereo unspecified)  Nitric oxide synthase 3 (Homo sapiens)            pIC50            7.10
 3  NC1=NC(c2ccco2)Cc2ccsc21 (stereo unspecified)  Nitric oxide synthase 3 (Homo sapiens)            pIC50            6.04
 4  NC1=NC(C2CC2)Cc2ccsc21 (stereo unspecified)  Nitric oxide synthase 3 (Homo sapiens)            pIC50            7.30
 5  NC1=NC(c2ccccc2)Cc2ccsc21 (stereo unspecified)  Nitric oxide synthase 3 (Homo sapiens)            pIC50            5.40
 6  C#CC1Cc2sccc2C(N)=N1 (stereo unspecified)  Nitric oxide synthase 3 (Homo sapiens)            pIC50            6.92
 7  CC#CC1Cc2ccsc2C(N)=N1 (stereo unspecified)  Nitric oxide synthase 3 (Homo sapiens)            pIC50            5.30
 8                           NC1=NCCc2ccsc21  Nitric oxide synthase 3 (Homo sapiens)            pIC50            6.55
 9  NC1=NC(c2ccccc2)Cc2sccc21 (stereo unspecified)  Nitric oxide synthase 3 (Homo sapiens)            pIC50            5.02
10  NC1=NC(c2cccs2)Cc2ccsc21 (stereo unspecified)  Nitric oxide synthase 3 (Homo sapiens)            pIC50            5.72
11  C#CC1Cc2cc(C)sc2C(N)=N1 (stereo unspecified)  Nitric oxide synthase 3 (Homo sapiens)            pIC50            5.00

====

- TARGET DESC: Nitric oxide synthase, inducible (Homo sapiens)
- Sequence (P35228 whole entry): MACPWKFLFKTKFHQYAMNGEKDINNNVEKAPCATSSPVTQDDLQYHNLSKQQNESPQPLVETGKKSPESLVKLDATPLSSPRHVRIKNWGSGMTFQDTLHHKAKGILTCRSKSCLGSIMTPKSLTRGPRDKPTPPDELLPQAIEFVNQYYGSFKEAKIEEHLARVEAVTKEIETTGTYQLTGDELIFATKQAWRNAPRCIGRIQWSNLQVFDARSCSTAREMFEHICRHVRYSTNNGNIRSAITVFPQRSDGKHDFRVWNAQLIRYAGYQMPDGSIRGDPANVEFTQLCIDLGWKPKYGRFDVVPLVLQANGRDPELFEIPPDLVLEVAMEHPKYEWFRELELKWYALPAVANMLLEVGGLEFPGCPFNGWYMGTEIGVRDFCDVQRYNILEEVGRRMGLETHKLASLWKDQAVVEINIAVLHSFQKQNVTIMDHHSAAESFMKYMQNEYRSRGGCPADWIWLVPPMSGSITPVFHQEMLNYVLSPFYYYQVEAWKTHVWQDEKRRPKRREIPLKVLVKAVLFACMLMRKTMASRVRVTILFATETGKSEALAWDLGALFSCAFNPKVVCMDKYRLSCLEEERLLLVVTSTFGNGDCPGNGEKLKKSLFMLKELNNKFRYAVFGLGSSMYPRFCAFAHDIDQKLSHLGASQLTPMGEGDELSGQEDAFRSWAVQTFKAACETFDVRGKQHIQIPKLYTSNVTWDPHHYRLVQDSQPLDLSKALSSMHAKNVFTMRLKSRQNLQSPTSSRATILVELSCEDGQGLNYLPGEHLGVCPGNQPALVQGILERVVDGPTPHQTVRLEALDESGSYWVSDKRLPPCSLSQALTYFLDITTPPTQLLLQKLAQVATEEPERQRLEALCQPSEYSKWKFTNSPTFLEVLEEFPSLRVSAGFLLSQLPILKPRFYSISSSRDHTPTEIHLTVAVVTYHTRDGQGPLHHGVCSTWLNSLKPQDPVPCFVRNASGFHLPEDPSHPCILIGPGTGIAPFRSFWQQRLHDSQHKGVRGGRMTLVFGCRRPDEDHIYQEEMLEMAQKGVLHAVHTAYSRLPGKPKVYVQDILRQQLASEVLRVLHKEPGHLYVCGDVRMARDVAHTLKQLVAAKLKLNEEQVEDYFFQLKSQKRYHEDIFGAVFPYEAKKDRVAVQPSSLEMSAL
- PROTOCOL DESCRIPTION: Ability to inhibit the conversion of [3H]L-Arg to [3H]L-citrulline catalyzed by i-NOS from human DLD-1 cells
Measured IC50 of individual entries
REPORTED METRIC: IC50 (nM)

> print(dat)
                                    compound  reported.metric  measured.value
 1  NC1=NC(c2cccnc2)Cc2ccsc21 (stereo not given)             IC50            2800
 2  NC1=NC(C2CC2)Cc2ccsc21 (stereo not given)             IC50              51
 3  NC1=NC(c2ccccc2)Cc2ccsc21 (stereo not given)             IC50            8300
 4   C#CC1Cc2sccc2C(N)=N1 (stereo not given)             IC50             110
 5  NC1=NC(C2CC2)Cc2sccc21 (stereo not given)             IC50             190
 6  NC1=NC(c2ccccc2)Cc2sccc21 (stereo not given)             IC50            2700
 7   C#CC1Cc2ccsc2C(N)=N1 (stereo not given)             IC50              40
 8  NC1=NC(c2ccco2)Cc2ccsc21 (stereo not given)             IC50              89
 9  C#CC1Cc2cc(C)sc2C(N)=N1 (stereo not given)             IC50            3500
10  CC(C)(C)C#CC1Cc2ccsc2C(N)=N1 (stereo not given)             IC50            3600
11  NC1=NC(C#Cc2ccccc2)Cc2ccsc21 (stereo not given)             IC50           28000
12  NC1=NC(c2cccs2)Cc2ccsc21 (stereo not given)             IC50             150
13  CC#CC1Cc2ccsc2C(N)=N1 (stereo not given)             IC50             150
14                           NC1=NCCc2sccc21             IC50            1600
15                           NC1=NCCc2ccsc21             IC50             730

====

- TARGET DESC: Nitric oxide synthase 1 (Rattus norvegicus, UniProt P29476)
- Sequence (P29476 whole entry): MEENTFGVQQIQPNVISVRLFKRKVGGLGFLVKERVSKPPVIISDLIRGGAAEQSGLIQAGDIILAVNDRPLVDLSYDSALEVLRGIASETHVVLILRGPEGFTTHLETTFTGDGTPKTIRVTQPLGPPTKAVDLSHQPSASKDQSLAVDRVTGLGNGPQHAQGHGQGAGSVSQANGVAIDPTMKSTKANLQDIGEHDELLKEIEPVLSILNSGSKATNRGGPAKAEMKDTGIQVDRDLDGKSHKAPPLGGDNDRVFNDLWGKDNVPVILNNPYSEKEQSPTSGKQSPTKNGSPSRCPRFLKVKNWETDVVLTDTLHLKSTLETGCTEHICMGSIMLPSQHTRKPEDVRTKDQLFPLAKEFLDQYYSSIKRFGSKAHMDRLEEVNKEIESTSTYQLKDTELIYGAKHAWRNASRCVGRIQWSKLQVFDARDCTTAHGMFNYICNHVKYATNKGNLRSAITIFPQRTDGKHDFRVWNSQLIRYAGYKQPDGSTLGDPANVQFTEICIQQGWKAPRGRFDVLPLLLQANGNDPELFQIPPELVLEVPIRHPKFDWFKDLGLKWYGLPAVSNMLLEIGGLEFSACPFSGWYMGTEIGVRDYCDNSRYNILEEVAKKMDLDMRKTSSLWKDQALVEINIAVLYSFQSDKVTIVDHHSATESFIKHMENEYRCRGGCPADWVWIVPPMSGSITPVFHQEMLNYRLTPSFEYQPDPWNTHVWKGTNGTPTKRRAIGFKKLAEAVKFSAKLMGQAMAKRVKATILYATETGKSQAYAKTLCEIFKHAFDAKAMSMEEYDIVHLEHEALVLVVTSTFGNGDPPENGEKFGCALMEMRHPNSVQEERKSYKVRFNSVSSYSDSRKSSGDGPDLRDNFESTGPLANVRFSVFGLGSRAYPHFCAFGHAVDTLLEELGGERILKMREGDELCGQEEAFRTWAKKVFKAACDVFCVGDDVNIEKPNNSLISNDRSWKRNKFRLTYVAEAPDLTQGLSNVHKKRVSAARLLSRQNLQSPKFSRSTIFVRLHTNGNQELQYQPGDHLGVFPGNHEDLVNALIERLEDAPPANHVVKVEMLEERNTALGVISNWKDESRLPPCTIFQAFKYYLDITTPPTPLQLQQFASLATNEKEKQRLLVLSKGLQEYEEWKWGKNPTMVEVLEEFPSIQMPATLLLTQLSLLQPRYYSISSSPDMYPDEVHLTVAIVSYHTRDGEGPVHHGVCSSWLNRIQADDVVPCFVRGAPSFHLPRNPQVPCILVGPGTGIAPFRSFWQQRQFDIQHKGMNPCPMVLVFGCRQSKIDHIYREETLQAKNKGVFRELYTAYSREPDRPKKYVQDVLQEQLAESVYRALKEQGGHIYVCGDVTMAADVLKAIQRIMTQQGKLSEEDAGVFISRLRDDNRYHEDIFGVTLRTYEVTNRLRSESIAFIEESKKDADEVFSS
- PROTOCOL DESCRIPTION: Ability to inhibit the conversion of [3H]-L-Arg to [3H]L-citrulline catalyzed by n-NOS from rat cerebellum
pIC50: −log10 of the molar value.
Measured pIC50 of individual entries
REPORTED METRIC: pIC50

> print(dat)
                                    compound                               target.desc  measured.value
 1  CC#CC1Cc2ccsc2C(N)=N1 (stereo not given)  Nitric oxide synthase 1 (Rattus norvegicus, UniProt P29476)            7.10
 2  NC1=NC(c2cccnc2)Cc2ccsc21 (stereo not given)  Nitric oxide synthase 1 (Rattus norvegicus, UniProt P29476)            6.59
 3  C#CC1Cc2cc(C)sc2C(N)=N1 (stereo not given)  Nitric oxide synthase 1 (Rattus norvegicus, UniProt P29476)            6.04
 4   C#CC1Cc2sccc2C(N)=N1 (stereo not given)  Nitric oxide synthase 1 (Rattus norvegicus, UniProt P29476)            7.60
 5  NC1=NC(C2CC2)Cc2ccsc21 (stereo not given)  Nitric oxide synthase 1 (Rattus norvegicus, UniProt P29476)            7.96
 6  NC1=NC(c2ccccc2)Cc2sccc21 (stereo not given)  Nitric oxide synthase 1 (Rattus norvegicus, UniProt P29476)            6.13
 7                           NC1=NCCc2sccc21  Nitric oxide synthase 1 (Rattus norvegicus, UniProt P29476)            7.00
 8  NC1=NC(C2CC2)Cc2sccc21 (stereo not given)  Nitric oxide synthase 1 (Rattus norvegicus, UniProt P29476)            7.74
 9  NC1=NC(c2ccco2)Cc2ccsc21 (stereo not given)  Nitric oxide synthase 1 (Rattus norvegicus, UniProt P29476)            7.40
10  NC1=NC(C#Cc2ccccc2)Cc2ccsc21 (stereo not given)  Nitric oxide synthase 1 (Rattus norvegicus, UniProt P29476)            5.39
11                           NC1=NCCc2ccsc21  Nitric oxide synthase 1 (Rattus norvegicus, UniProt P29476)            6.26
12   C#CC1Cc2ccsc2C(N)=N1 (stereo not given)  Nitric oxide synthase 1 (Rattus norvegicus, UniProt P29476)            8.22
13  NC1=NC(c2cccs2)Cc2ccsc21 (stereo not given)  Nitric oxide synthase 1 (Rattus norvegicus, UniProt P29476)            7.30
14  CC(C)(C)C#CC1Cc2ccsc2C(N)=N1 (stereo not given)  Nitric oxide synthase 1 (Rattus norvegicus, UniProt P29476)            5.00
15  NC1=NC(c2ccccc2)Cc2ccsc21 (stereo not given)  Nitric oxide synthase 1 (Rattus norvegicus, UniProt P29476)            6.85
